Origin of measurements: patent US8940768B2

# System: Cryptococcus neoformans
# assay_explanation: in vitro antifungal activity (MIC80), Cryptococcus neoformans
# Type: cell-based
# condition_info: 80% growth inhibition vs negative control, RPMI 1640, read 48 hrs after application
measured_endpoint: MIC80

Please review the entries below; each comes with its answer.
{"molecule": "C[C@@H](NC1CCN(c2ncc(Br)cn2)CC1)[C@](O)(Cn1cncn1)c1ccc(F)cc1F [Example 153]", "recorded_result": "≤ 0.015 µg/mL"}
{"molecule": "C[C@@H](NC1CCN(c2ccc(F)cc2)CC1)[C@](O)(Cn1cncn1)c1ccc(F)cc1F [Example 125]", "recorded_result": "≤ 0.015 µg/mL"}
{"molecule": "C[C@@H](c1ncncc1F)[C@](O)(Cn1cncn1)c1ccc(F)cc1F [Voriconazole, reference compound]", "recorded_result": "0.25 µg/mL"}
{"molecule": "C[C@@H](N1CCC(Oc2ncccn2)CC1)[C@](O)(Cn1cncn1)c1ccc(F)cc1F [Example 29]", "recorded_result": "≤ 0.015 µg/mL"}
{"molecule": "C[C@@H](N1CCC(Oc2ncc(Br)cn2)CC1)[C@](O)(Cn1cncn1)c1ccc(F)cc1F [Example 32]", "recorded_result": "≤ 0.015 µg/mL"}

Dear colleague, could you please provide MIC80 for the molecules listed below?
1. C[C@@H](N1CCC(Nc2ccc(Cl)cc2)CC1)[C@](O)(Cn1cncn1)c1ccc(F)cc1F [Example 34]
2. C[C@@H](NC1CCN(c2ccc(Cl)cc2)CC1)[C@](O)(Cn1cncn1)c1ccc(F)cc1F [Example 128]
3. C[C@@H](N1CCC(Nc2ccc(Cl)cn2)CC1)[C@](O)(Cn1cncn1)c1ccc(F)cc1F [Example 59]
4. C[C@@H](N1CCC(Oc2ccc(F)cc2)CC1)[C@](O)(Cn1cncn1)c1ccc(F)cc1F [Example 1]
5. OC(Cn1cncn1)(Cn1cncn1)c1ccc(F)cc1F [Fluconazole, reference compound]

Ans.
1: ≤ 0.015 µg/mL; 2: ≤ 0.015 µg/mL; 3: ≤ 0.015 µg/mL; 4: ≤ 0.015 µg/mL; 5: 0.5 µg/mL
